system: Plasmodium berghei; experiment: Screen against P. berghei liver stage (PbLuc), transformed with Luciferase, at 2uM; assay type: functional, HepG2; settings: tested at 2 uM
In all, about 68,000 compounds went through this assay and about 2,700 (4%) showed an effect of 50% or more. The entries come from a sample that favours strong results as a whole.
Measured INHIBITION, listed per entry.
Field: numeric (%). Do not append units.

Some entries whose results are on file:
>>> print(df.to_string())
                               input_smiles  measured_value
0     O=C(C1CCC1)N1CCCn2nc(CNc3ncccn3)cc2C1           52.47
1  Cc1cc(NCc2cc3n(n2)CCCN(S(C)(=O)=O)C3)ncn1          -14.84
2  Cc1nccc(NCc2cc3n(n2)CCCN(C(=O)C2CCC2)C3)n1            55.7
3  Cc1cc(C)nc(NCc2cc3n(n2)CCCN(C(=O)C2CCC2)C3)n1           -4.53
4  Cc1nccc(NCc2cc3n(n2)CCCN(S(C)(=O)=O)C3)n1            8.89

The record that follows has no INHIBITION shown yet.
Exercise: What value of measured INHIBITION is listed for CSc1nccc(NCc2cc3n(n2)CCCN(C(=O)C2CCC2)C3)n1 ?
Solution: -36.65

----------
test system: Plasmodium berghei; assay: Screen against P. berghei liver stage (PbLuc), transformed with Luciferase, at 2uM; type: functional, HepG2; settings: tested at 2 uM
Out of some 68,000 compounds screened, about 2,700 (4%) showed an effect of 50% or more. This excerpt belongs to a sample that is enriched for strong results.
readout: INHIBITION (%)
Field: numeric (%). Do not append units.

>>> df
                                   molecule        study_system  measured_value
0  CNS(=O)(=O)CCN1CC(c2ccccc2)(c2ccccc2)CCC1=O  Plasmodium berghei           40.51
1  CC(C)n1nc(CN2CCOCC2)c2c1CN(C(=O)c1ccno1)C2  Plasmodium berghei            29.3
2  CC[C@@H]1N(CC2CCC2)CCC[C@]12CCC(=O)N2Cc1ccncc1  Plasmodium berghei           12.28

Exercise: What value of measured INHIBITION is listed for Fc1ccc(-c2nc(CN3CCOC(Cn4cccn4)C3)co2)cc1 (configuration not stated) ?
Solution: -17.31

Exercise: What value of measured INHIBITION is listed for c1csc(-c2nc(CN3CCOC(Cn4cncn4)C3)co2)c1 (configuration not stated) ?
Solution: 71.48

Exercise: What value of measured INHIBITION is listed for CC[C@@H]1N(Cc2ccncc2)CCC[C@]12CCC(=O)N2CCOC ?
Solution: 28.86

Exercise: What value of measured INHIBITION is listed for Cc1cnn(CC2CN(CC(=O)N(C)Cc3ccsc3)CCO2)c1 (configuration not stated) ?
Solution: 47.84

----------
test system: Plasmodium berghei; test: Screen against P. berghei liver stage (PbLuc), transformed with Luciferase, at 2uM; assay type: functional, HepG2; settings: tested at 2 uM
Among all 68,000 compounds or so, about 2,700 (4%) showed an effect of 50% or more. Shown is part of a subset that was picked to be rich in strong results.
Measured INHIBITION, listed per entry.
Field: numeric (%). Do not append units.

Some entries whose results are on file:
>>> print(df.to_string())
                                   compound        study_system     readout  measured_value
0  Cc1ccc2c(c1)c(CNC(=O)C1CCCN(CC(N)=O)C1)nn2C (configuration not stated)  Plasmodium berghei  INHIBITION           -1.87
1  CCOc1ccc(Br)cc1C1CCCN1 (configuration not stated)  Plasmodium berghei  INHIBITION           53.55
2  CC(Cn1cncn1)NC(=O)NCC(C)(C)Cc1ccccc1 (configuration not stated)  Plasmodium berghei  INHIBITION           46.98
3  CN(Cc1nc(Cc2ccccc2F)no1)CC1Cc2ccccc2O1 (configuration not stated)  Plasmodium berghei  INHIBITION            60.9
4  Cc1cccc(C2(CNC(C)c3nnc(C)o3)CCCC2)c1 (configuration not stated)  Plasmodium berghei  INHIBITION           38.96

Exercise: What value of measured INHIBITION is listed for Cc1ccnc(C2(C)CCCN2S(=O)(=O)c2cccnc2)n1 (configuration not stated) ?
Solution: -0.7

Exercise: What value of measured INHIBITION is listed for CN(Cc1nc(CC2CC2)no1)CC1Cc2ccccc2O1 (configuration not stated) ?
Solution: 44.37

Exercise: What value of measured INHIBITION is listed for CN(Cc1nc(COc2ccccc2)no1)CC1Cc2ccccc2O1 (configuration not stated) ?
Solution: 8.03

Values were extracted from ChEMBL document CHEMBL4513216.
